Measured Km accompanies every entry in the list below.
Target: OXA-163 (Klebsiella pneumoniae, UniProt Q6XEC0, DEL214-217/S212D)
Experiment: Steady-state enzyme kinetics of substrate hydrolysis by OXA-163
Assay type: biochemical, Klebsiella pneumoniae and Enterobacter cloacae
Details: OXA-163; 30°C, 50 mM sodium phosphate pH 7.2, 15 mM sodium bicarbonate
measurement.kind: Km

molecular_string=CC(=O)OCC1=C(C(=O)O)N2C(=O)[C@@H](NC(=O)Cc3cccs3)[C@H]2SC1 assay_system="OXA-163 (Klebsiella pneumoniae, UniProt Q6XEC0, DEL214-217/S212D)" observed="3.4 µM"
molecular_string=O=C(Cc1cccs1)N[C@@H]1C(=O)N2C(C(=O)O)=C(/C=C/c3ccc([N+](=O)[O-])cc3[N+](=O)[O-])CS[C@H]12 assay_system="OXA-163 (Klebsiella pneumoniae, UniProt Q6XEC0, DEL214-217/S212D)" observed="19 µM"
molecular_string=C[C@@H](O)[C@H]1C(=O)N2C(C(=O)O)=C(S[C@@H]3CN[C@H](C(=O)N(C)C)C3)[C@H](C)[C@H]12 assay_system="OXA-163 (Klebsiella pneumoniae, UniProt Q6XEC0, DEL214-217/S212D)" observed="5.3 µM"
molecular_string=CC(C)(O/N=C(\C(=O)N[C@@H]1C(=O)N2C(C(=O)[O-])=C(C[n+]3ccccc3)CS[C@H]12)c1csc(N)n1)C(=O)O assay_system="OXA-163 (Klebsiella pneumoniae, UniProt Q6XEC0, DEL214-217/S212D)" observed="> 1000 µM"
molecular_string=CO/N=C(\C(=O)N[C@@H]1C(=O)N2C(C(=O)O)=C(COC(C)=O)CS[C@H]12)c1csc(N)n1 assay_system="OXA-163 (Klebsiella pneumoniae, UniProt Q6XEC0, DEL214-217/S212D)" observed="36 µM"
molecular_string=C[C@@H](O)[C@H]1C(=O)N2C(C(=O)O)=C(SCCN=CN)C[C@H]12 assay_system="OXA-163 (Klebsiella pneumoniae, UniProt Q6XEC0, DEL214-217/S212D)" observed="3.6 µM"
molecular_string=C[C@@H](O)[C@H]1C(=O)N2C(C(=O)O)=C(S[C@@H]3CN[C@H](CNS(N)(=O)=O)C3)[C@H](C)[C@H]12 assay_system="OXA-163 (Klebsiella pneumoniae, UniProt Q6XEC0, DEL214-217/S212D)" observed="5 µM"

###

Measured kcat accompanies every entry in the list below.
Target: OXA-163 (Klebsiella pneumoniae, UniProt Q6XEC0, DEL214-217/S212D)
Assay: Steady-state enzyme kinetics of substrate hydrolysis by OXA-163
Assay type: biochemical, Klebsiella pneumoniae and Enterobacter cloacae
Settings: OXA-163; 30°C, 50 mM sodium phosphate pH 7.2, 15 mM sodium bicarbonate
measurement.kind: kcat (s⁻¹)

molecular_string=O=C(Cc1cccs1)N[C@@H]1C(=O)N2C(C(=O)O)=C(/C=C/c3ccc([N+](=O)[O-])cc3[N+](=O)[O-])CS[C@H]12 units=s⁻¹ observed=34
molecular_string=CC(=O)OCC1=C(C(=O)O)N2C(=O)[C@@H](NC(=O)Cc3cccs3)[C@H]2SC1 units=s⁻¹ observed=1.7
molecular_string=CO/N=C(\C(=O)N[C@@H]1C(=O)N2C(C(=O)O)=C(COC(C)=O)CS[C@H]12)c1csc(N)n1 units=s⁻¹ observed=14
